System: erythrocytes
EXPERIMENT_DESCRIPTION: Haemolytic activity of soluble samples
Format: cell-based
Method: Blood from three donors is mixed and centrifuged (10 min, 1000 g, 4° C.). The erythrocytes obtained are washed three times with NaCl solution (150 mmol·l^−1) and then used for experiments. Sample stock solutions are prepared in DMSO so that the final concentration of DMSO in NaCl is 0.5% (v/v). […] After centrifugation (5 min, 1000 g), haemolytic activity is monitored by haemoglobin determination. The HC50 value is calculated from the measured absorbance values. […]
ASSAY_ENDPOINT: HC50 ± SD

- CC(C)COP(=O)(CCN(CCCN)CCCN)OCCCCCCCCCCOP(=O)(CCN(CCCN)CCCN)OCC(C)C (centres unmarked): >100
- CC(C)COP(=O)(CCN(CCCN)CCCN)OCCCCCCCCCCCCCCOP(=O)(CCN(CCCN)CCCN)OCC(C)C (centres unmarked): >100
- CCCCCCOP(=O)(CCN(CCN)CCN)OCCCCCCCCOP(=O)(CCN(CCN)CCN)OCCCCCC (centres unmarked): >100
- NCCCN(CCCN)CCP(=O)(OCCCCCCCCCCCCOP(=O)(CCN(CCCN)CCCN)OCCc1ccccc1)OCCc1ccccc1 (centres unmarked): >100
- CC(C)COP(=O)(CCN(CCCN)CCCN)OCCCCCCCCCCCCOP(=O)(CCN(CCCN)CCCN)OCC(C)C (centres unmarked): >100

# batch: return HC50 ± SD for each of the 3 compounds below
1. CCCC/C=C\CCOP(=O)(CCN(CCCN)CCCN)OCCCCCOP(=O)(CCN(CCCN)CCCN)OCC/C=C\CCCC (centres unmarked)
2. CCCC/C=C\CCOP(=O)(CCN(CCCN)CCCN)OCCCCCCOP(=O)(CCN(CCCN)CCCN)OCC/C=C\CCCC (centres unmarked)
3. CCCCCOP(=O)(CCN(CCCN)CCCN)OCCCCCCCCCCCCOP(=O)(CCN(CCCN)CCCN)OCCCCC (centres unmarked)

[70, 34.8, 4]

Data origin, for the record: patent US12540148B2
